Reported T/C values for a set of compounds
# Tested on: MX-1 breast xenograft, nude mice, tumor weight T/C
# protocol: NCI In Vivo Anticancer Drug Screen. Data for tumor model Human Mammary Carcinoma MX-1 Xenograft (intrarenal inoculation) in NU/NU Swiss (nude) mice
# conditionSummary: endpoint: mean tumor weight change; dose: 600.0 mg/kg/injection; schedule: Q04DX003 (sc); vehicle: distilled water + Tween-80; higher = larger tumour
Results filed as inconclusive are left out. Where a SMILES comes first, the peptide text is derived from it. The star is where a group is joined. Trt = c1ccc(C(c2ccccc2)(c2ccccc2)*)cc1; Cbz = O=C(OCc1ccccc1)*

compound	subjectOfTest	T/C
COC(=O)C(CSC(c1ccccc1)(c1ccccc1)c1ccccc1)NC(=O)C(CC(N)=O)NC(=O)OCc1ccccc1 (stereo not drawn) (Cbz-Asn-Cys(Trt)-OMe; configuration not given here)	MX-1 breast xenograft, nude mice, tumor weight T/C	77 % of control
COc1ccc2c(c1)CCn1c(C)c(COC(=O)NC(C)C)c(COC(=O)NC(C)C)c1-2	MX-1 breast xenograft, nude mice, tumor weight T/C	-100 % of control
CNC(=O)OCc1c(COC(=O)NC)c(-c2ccc(Cl)c(Cl)c2)n2c1Cc1ccccc1C2	MX-1 breast xenograft, nude mice, tumor weight T/C	70 % of control
O=C(O)CCCCCCCC(=O)O	MX-1 breast xenograft, nude mice, tumor weight T/C	150 % of control

====

# Tested on: MX-1 breast xenograft, nude mice, tumor weight T/C
# protocol: NCI In Vivo Anticancer Drug Screen. Data for tumor model Human Mammary Carcinoma MX-1 Xenograft (intrarenal inoculation) in NU/NU Swiss (nude) mice
# conditionSummary: endpoint: mean tumor weight change; dose: 1200.0 mg/kg/injection; schedule: Q04DX003 (sc); vehicle: distilled water + Tween-80; higher = larger tumour
Inconclusive results are not listed. Where a SMILES comes first, the peptide text is derived from it. The star is where a group is joined. Trt = c1ccc(C(c2ccccc2)(c2ccccc2)*)cc1; Cbz = O=C(OCc1ccccc1)*
Reported T/C values for a set of compounds
valueKind: T/C

compound	subjectOfTest	reported
COC(=O)C(CSC(c1ccccc1)(c1ccccc1)c1ccccc1)NC(=O)C(CC(N)=O)NC(=O)OCc1ccccc1 (stereo not drawn) (Cbz-Asn-Cys(Trt)-OMe; configuration not given here)	MX-1 breast xenograft, nude mice, tumor weight T/C	78 % of control
COc1ccc2c(c1)CCn1c(C)c(COC(=O)NC(C)C)c(COC(=O)NC(C)C)c1-2	MX-1 breast xenograft, nude mice, tumor weight T/C	-100 % of control
O=C(O)CCCCCCCC(=O)O	MX-1 breast xenograft, nude mice, tumor weight T/C	80 % of control
CNC(=O)OCc1c(COC(=O)NC)c(-c2ccc(Cl)c(Cl)c2)n2c1Cc1ccccc1C2	MX-1 breast xenograft, nude mice, tumor weight T/C	103 % of control
O=C(NO)c1ccc(O)c(O)c1	MX-1 breast xenograft, nude mice, tumor weight T/C	77 % of control

====

# Tested on: MX-1 breast xenograft, nude mice, tumor weight T/C
# protocol: NCI In Vivo Anticancer Drug Screen. Data for tumor model Human Mammary Carcinoma MX-1 Xenograft (intrarenal inoculation) in NU/NU Swiss (nude) mice
# conditionSummary: endpoint: mean tumor weight change; dose: 100.0 mg/kg/injection; schedule: Q01DX010 (sc); vehicle: Klucel (hydroxypropylcellulose) (HPC); higher = larger tumour
Results filed as inconclusive are left out.
valueKind: T/C

smilesCode	reported
O=[N+]([O-])/C=C\c1ccc2c(c1)OCO2	91 % of control
O=c1[nH]c(=O)n([C@H]2CCCO2)cc1F	112 % of control
ClCCCCCCCCCCc1ccccc1	89 % of control
CN(C)N=Nc1ccc(S(N)(=O)=O)cc1	75 % of control
CNC(=O)OCc1c(COC(=O)NC)c(C)n(-c2ccc(OC)cc2)c1C	9 % of control
CN(C)c1nc(N(C)C)nc(N(C)C)n1	-82 % of control
Cc1cc(N(CCOS(C)(=O)=O)CCOS(C)(=O)=O)ccc1C=Nc1ccc(-c2nc(Cc3ccccc3)sc2C)cc1	-88 % of control
CN(C)/N=N/c1nc[nH]c1C(N)=O	93 % of control
COC(=O)Nc1cccc(-c2nc3ccc(NC(=O)OC)cc3c(=O)n2-c2ccccc2)c1	33 % of control
Cn1cnc([N+](=O)[O-])c1S(=O)(=O)NCN1CCOCC1	94 % of control
CC(=O)[O][Pb]([O]C(C)=O)([c]1ccccc1)[c]1ccccc1	122 % of control
CS(=O)(=O)OCCN(CCOS(C)(=O)=O)c1ccc(C=Nc2ccc(-c3csc(COc4ccccc4)n3)cc2)cc1	-18 % of control
O=C([CH-]C(=O)C(F)(F)F)c1ccccc1.O=C([CH-]C(=O)C(F)(F)F)c1ccccc1.O=C([CH-]C(=O)C(F)(F)F)c1ccccc1.O=C([CH-]C(=O)C(F)(F)F)c1ccccc1.[Eu+3].c1ccncc1	174 % of control

====

Reported T/C values for a set of molecules
# System: MX-1 breast xenograft, nude mice, tumor weight T/C
# protocol: NCI In Vivo Anticancer Drug Screen. Data for tumor model Human Mammary Carcinoma MX-1 Xenograft (intrarenal inoculation) in NU/NU Swiss (nude) mice
# conditionSummary: endpoint: mean tumor weight change; dose: 50.0 mg/kg/injection; schedule: Q04DX003 (sc); vehicle: saline with Tween-80; higher = larger tumour
Inconclusive results are not listed.

molecule	T/C
CC1c2ccccc2CC(CCN(C)C)c2ccccc21 (stereo unspecified)	65 % of control
COc1cc(OC)c(NC(=O)ON2C(=O)c3ccccc3C2=O)cc1Cl	95 % of control
CC(=O)N(C)c1ccc(Nc2cc(C)[nH]c3ccc4ncnc4c23)cc1	102 % of control
CN=C(N)N/N=C(\c1ccccc1)c1ccc(Br)cc1	163 % of control
COC(=O)Nc1nc2ccc(C3(c4ccc(F)cc4)OCCO3)cc2[nH]1	100 % of control
C[n+]1cccc(NC(=O)c2ccc(NC(=O)C34CCC(C(=O)Nc5ccc(C(=O)Nc6ccc[n+](C)c6)cc5)(CC3)CC4)cc2)c1	35 % of control
Nc1cc2c3c(cccc3c1)C(=O)N(CCN1CCCC1)C2=O	60 % of control
C/C=C/c1cc2c(c(=O)o1)C(=O)[C@@H](O)[C@H](C)O2	114 % of control
CN(N=O)C(N)=O	17 % of control
C=C1N(C)c2ccccc2C1(C)C	75 % of control
CN(CCN(C)C(=O)CCOS(C)(=O)=O)C(=O)CCOS(C)(=O)=O	41 % of control

====

# System: MX-1 breast xenograft, nude mice, tumor weight T/C
# protocol: NCI In Vivo Anticancer Drug Screen. Data for tumor model Human Mammary Carcinoma MX-1 Xenograft (intrarenal inoculation) in NU/NU Swiss (nude) mice
# conditionSummary: endpoint: mean tumor weight change; dose: 200.0 mg/kg/injection; schedule: Q01DX010 (sc); vehicle: saline with Tween-80; higher = larger tumour
Inconclusive results are not listed.

molecule	subjectOfTest	T/C
O=CC=O	MX-1 breast xenograft, nude mice, tumor weight T/C	100 % of control
Cc1ccccc1SSc1ccccc1C	MX-1 breast xenograft, nude mice, tumor weight T/C	88 % of control
N#Cc1nc(C#N)c(Sc2ccccc2)c(Sc2ccccc2)c1Sc1ccccc1	MX-1 breast xenograft, nude mice, tumor weight T/C	80 % of control
O=C(CO)c1ccc([N+](=O)[O-])cc1	MX-1 breast xenograft, nude mice, tumor weight T/C	114 % of control
O=CN(SSN(C=O)C1CCCCC1)C1CCCCC1	MX-1 breast xenograft, nude mice, tumor weight T/C	53 % of control
CN1C(=O)NC(c2ccc(Cl)cc2)(c2ccc(Cl)cc2)C1=O	MX-1 breast xenograft, nude mice, tumor weight T/C	60 % of control
Cc1ccc(S(=O)(=O)NC(=S)S)cc1	MX-1 breast xenograft, nude mice, tumor weight T/C	98 % of control
C[C@@H](CN1CC(=O)NC(=O)C1)N1CC(=O)NC(=O)C1	MX-1 breast xenograft, nude mice, tumor weight T/C	81 % of control
O=c1[nH]c(=O)n(C2CC(O)C(CO)O2)cc1I (configuration not stated)	MX-1 breast xenograft, nude mice, tumor weight T/C	38 % of control
CC(=O)Nc1ccc(C(=O)C=O)cc1	MX-1 breast xenograft, nude mice, tumor weight T/C	55 % of control
COc1cc(C[C@H]2c3cc(OC)c(OC)cc3CCN2C)c(Oc2cc3c(cc2OC)-c2c(OC)c(OC)cc4c2[C@H](C3)N(C)CC4)cc1OC	MX-1 breast xenograft, nude mice, tumor weight T/C	67 % of control
Oc1ccc(SCc2ccc(NCc3ccccc3)cc2)cc1	MX-1 breast xenograft, nude mice, tumor weight T/C	74 % of control

====

# System: MX-1 breast xenograft, nude mice, tumor weight T/C
# protocol: NCI In Vivo Anticancer Drug Screen. Data for tumor model Human Mammary Carcinoma MX-1 Xenograft (intrarenal inoculation) in NU/NU Swiss (nude) mice
# conditionSummary: endpoint: mean tumor weight change; dose: 37.5 mg/kg/injection; schedule: Q04DX003 (sc); vehicle: saline; higher = larger tumour
Records with an inconclusive call do not appear.
valueKind: T/C

compound	valueKind	reported
Cc1c(N)nc([C@H](CC(N)=O)NC[C@H](N)C(N)=O)nc1C(=O)N[C@H](C(=O)N[C@H](C)[C@@H](O)[C@H](C)C(=O)N[C@H](C(=O)NCCc1nc(-c2nc(C(=O)NCCC[S+](C)C)cs2)cs1)[C@@H](C)O)C(OC1OC(CO)C(O)C(O)C1OC1OC(CO)C(O)C(OC(N)=O)C1O)c1cnc[nH]1 (some centres not stated)	T/C	80 % of control
C[C@@H]1C[C@@H]([C@H](O)CC2CC(=O)NC(=O)C2)C(=O)[C@@H](C)C1	T/C	105 % of control
O=C(NP(=O)(N1CC1)N1CC1)c1cc(I)ccc1I	T/C	23 % of control
COc1cc(NCCCCCCCNC(C)C)c2nccc(C)c2c1	T/C	93 % of control
N=C(N)Sc1cc(O)ccc1O	T/C	96 % of control
[Cl][Mn][Cl]	T/C	115 % of control
N/C(=N\OC(=O)Nc1ccc(CSc2ccc(Cl)cc2)o1)c1ccccn1	T/C	40 % of control
